Would you kindly list TGI for each of these compounds?
Tested on: UACC-62 melanoma
Assay: NCI tumour cell line growth inhibition, 48 h

// solved cases for TGI follow
Inquiry: Entry under review: CC(Cc1ccc(O)cc1)NCC(O)c1ccc(O)c(O)c1 (stereo not given) . Reported TGI?
Reply text: > 100 µM

Inquiry: Entry under review: O=C(Cc1nc2cccnc2nc1/C=C(\O)c1ccccc1)c1ccccc1 . Reported TGI?
Reply text: 18.6 µM

Inquiry: Entry under review: CCOC(=O)C(NC(=O)CC)(C(F)(F)F)P(=O)(OCC)OCC (stereo not given) . Reported TGI?
Reply text: > 100 µM

Inquiry: Entry under review: Cc1c(C(=N)N)oc2ccccc12 . Reported TGI?
Reply text: > 100 µM

Inquiry: Entry under review: CO/N=C(\COc1ccc2c(=O)cc(-c3ccccc3)oc2c1)c1ccc(F)cc1 . Reported TGI?
Reply text: > 100 µM

Inquiry: Entry under review: COc1nc(NC2OCC(O)C(O)C2O)c(NC2OCC(O)C(O)C2O)c(=O)n1C (stereo not given) . Reported TGI?
Reply text: > 100 µM

Inquiry: Entry under review: c1cc2ccc3cc2cc1CNCCN1CCNCc2ccc4ccc(cc4c2)CNCCN(CCNC3)CCNCc2ccc3ccc(cc3c2)CNCC1 . Reported TGI?
Reply text: 6.95 µM

Inquiry: Entry under review: COc1ccc(C2C(Cl)C(=O)N2NC(=O)c2ccccc2O)cc1 (stereo not given) . Reported TGI?
Reply text: > 100 µM

Inquiry: Entry under review: CCN1CC2(COC)C(O)CC(OC)C34C5CC6(O)C(OC)C=C(C5C6OC(=O)c5ccc(OC)c(OC)c5)C(C(OC)C23)C14 (stereo not given) . Reported TGI?
Reply text: > 7.5 µM

***
Inquiry: Entry under review: Cc1ccncc1N1CCN(c2ccnc(Cl)c2)C1=O . Reported TGI?
Reply text: > 100 µM

====

System: RPMI-8226 leukemia
Assay: NCI tumour cell line growth inhibition, 48 h
Would you kindly list GI50 for each of these molecules?

Inquiry: Entry under review: Nc1ncc2ccc3c(ccn3C3CC(O)C(CO)O3)c2n1 (stereo unspecified) . Reported GI50?
Reply text: > 100 µM

Inquiry: Entry under review: O=C(O)[C@@H]1CCCN1Cc1cc2cc3c(cc2c2cc(OCc4ccccc4)ccc12)OCO3 . Reported GI50?
Reply text: 17 µM

Inquiry: Entry under review: COc1ccc(C(=O)C2C(C#N)C(C#N)C3C=Cc4ccccc4N32)cc1 (stereo unspecified) . Reported GI50?
Reply text: 3.48 µM

Inquiry: Entry under review: Cc1ccc2nc3ccccc3c(NCc3ccccc3)c2c1 . Reported GI50?
Reply text: 1.56 µM

Provide the reported GI50 of each entry below, same order.
1. COc1ccc(OC)c(Nc2nc3ccccc3c3c2-c2ccc(OC)cc2C3=O)c1
2. COc1ccc(C(=O)/C=C/c2ccc(OCc3ccc(Cl)cc3)cc2)cc1OC
3. COC(=O)N1c2ccc3c(nc(Cc4ccccc4)n3[C@H]3CCC[C@H](C(=O)O)C3)c2CC[C@@H]1C
4. Cc1ccncc1N1CCN(c2ccnc(Cl)c2)C1=O
5. CCCCCC/C=C\CCCCCCCCCc1cc(O)cc(OC)c1O
6. N#Cc1ccccc1C#C/C=C\C#Cc1cccs1
7. Nc1c(C(=O)Nc2ccccc2)sc2nc3c(cc12)C(O)CCC3 (stereo unspecified)

Reply text:
> 100 µM
98.4 µM
3.84 µM
> 100 µM
0.219 µM
11.1 µM
0.372 µM
